- Test system: blackgrass
- procedure details: Test C postemergence
- Format: in vivo, Alopecurus myosuroides
- test context: Postemergence, 500 g ai/ha, 10 days, visual 0 to 100 scale (0 no effect, 100 complete control)
Plant response rating, Blackgrass by entry:
measured property: Plant response rating, Blackgrass

>>> df
                               input_smiles  measured_on                  measured_property  reading
0  C[C@H]1CN(C(=O)c2cccc(-c3ncccn3)c2)c2cccc(Cl)c2O1   blackgrass  Plant response rating, Blackgrass        0
1  Cc1cc(-n2cnc(C(C)C)n2)cc(C(=O)N2C[C@H](C)Oc3c(Cl)cccc32)c1Cl   blackgrass  Plant response rating, Blackgrass       50
2  C[C@H]1CN(C(=O)c2cc(-n3cnc(C(C)(C)C)n3)cc3c2OCCO3)c2cccc(Cl)c2O1   blackgrass  Plant response rating, Blackgrass       90
3  Cc1cccc2c1O[C@@H](C)CN2C(=O)c1cc(-n2cnc(C(C)C)n2)cc2occc12   blackgrass  Plant response rating, Blackgrass       90
4  Cc1cc(-n2cnc(C(C)C)n2)cc(C(=O)N2C[C@H](C)Oc3c(Cl)cccc32)c1F   blackgrass  Plant response rating, Blackgrass       70
5  C[C@H]1CN(C(=O)c2cccc(-n3cnc(C(C)(C)O)n3)c2)c2cccc(Cl)c2O1   blackgrass  Plant response rating, Blackgrass      100
6  COc1cc(C(=O)N2C[C@H](C)Oc3c(Cl)cccc32)cc(-n2cnc(C(C)C)n2)c1   blackgrass  Plant response rating, Blackgrass      100
7  CCn1cnc(-c2cccc(C(=O)N3C[C@H](C)Oc4c(Cl)cccc43)c2)n1   blackgrass  Plant response rating, Blackgrass        0
8  CC(C)c1ncn(-c2cc3c(c(C(=O)N4C[C@H](C)Oc5c(Cl)cccc54)c2)CCC3)n1   blackgrass  Plant response rating, Blackgrass       90

* * *

- System: blackgrass
- procedure details: Test A postemergence
- Assay type: in vivo, Alopecurus myosuroides
- test context: 125 g ai/ha, postemergence, 10 days; 0 to 100 scale, 0 no effect, 100 complete control
measured property: Blackgrass plant response rating

>>> print(df.to_string())
                                    compound  reading
 0  CCc1ncn(-c2cccc(C(=O)N3C[C@H](C)Oc4c(Cl)cccc43)c2)n1       90
 1  C[C@H]1CN(C(=O)c2cccc(-n3cnc(Br)n3)c2)c2cccc(Cl)c2O1       30
 2  C[C@H]1CN(C(=O)c2cc(Br)cc(-n3cncn3)c2)c2cccc(Cl)c2O1       50
 3  Cc1ccc(-n2cnc(C(C)(C)O)n2)cc1C(=O)N1C[C@H](C)Oc2c(Cl)cccc21       90
 4  Cc1cccc2c1O[C@@H](C)CN2C(=O)c1cccc(-n2cnc(COC(C)C)n2)c1        0
 5  CC(C)c1ncn(-c2ccc(OCC(F)(F)F)c(C(=O)N3C[C@H](C)Oc4c(Cl)cccc43)c2)n1       30
 6  CCC(C)c1ncn(-c2cccc(C(=O)N3C[C@H](C)Oc4c(C)cccc43)c2)n1 (stereo partly drawn)       10
 7  Cc1cccc2c1O[C@@H](C)CN2C(=O)c1cccc(-n2cnc(C3CCCCC3)n2)c1        0
 8  CCc1ncn(-c2ccc(CC)c(C(=O)N3C[C@H](C)Oc4c(Cl)cccc43)c2)n1       80
 9  CC(C)c1ncn(-c2cc(C(=O)N3C[C@H](C)Oc4c(Cl)cccc43)c3ccccc3c2)n1       10
10  Cc1cccc2c1O[C@@H](C)CN2C(=O)c1cccc(-n2cnn(C(C)C)c2=O)c1        0
11  CCc1ccc(-n2cnc(C(C)(C)C)n2)cc1C(=O)N1C[C@H](C)Oc2c(Cl)cccc21        0

* * *

- Tested on: kochia
- procedure details: Test A preemergence
- Type: in vivo, Bassia scoparia
- test context: 500 g ai/ha, visual injury after 10 days, 0 to 100 scale, 0 is no effect, 100 is complete control
Plant response rating, Kochia by entry:
measured property: Plant response rating, Kochia

>>> df
                               input_smiles  measured_on  reading
0  CC(C)c1ncn(-c2ccc(C#N)c(C(=O)N3C[C@H](C)Oc4c(Cl)cccc43)c2)n1       kochia       90
1  COCCc1ncn(-c2cccc(C(=O)N3C[C@H](C)Oc4c(C)cccc43)c2)n1       kochia      100
2  C=CCOc1ccc(-n2cnc(C(C)C)n2)cc1C(=O)N1C[C@H](C)Oc2c(Cl)cccc21       kochia       20
3  CC(C)c1ncn(-c2ccc(OC(F)(F)F)c(C(=O)N3C[C@H](C)Oc4c(Cl)cccc43)c2)n1       kochia       90

* * *

- Test system: barnyardgrass
- procedure details: Test C postemergence
- Type: in vivo, Echinochloa crusgalli
- test context: 125 g ai/ha, postemergence, 10 days; 0 to 100 scale, 0 no effect, 100 complete control
measured property: Plant response rating, Barnyardgrass

In [3]: df
Out[3]:
                                   molecule    measured_on  reading
0  CC(C)c1ncn(-c2ccc(S(=O)(=O)C(F)(F)F)c(C(=O)N3C[C@H](C)Oc4c(Cl)cccc43)c2)n1 [Compound 229]  barnyardgrass        0
1  COc1cc(C(=O)N2C[C@H](C)Oc3c(Cl)cccc32)cc(-n2cnc(C(C)(C)C)n2)c1 [Compound 213]  barnyardgrass       20
2  Cc1c(F)cc(-n2cnc(C(C)C)n2)cc1C(=O)N1C[C@H](C)Oc2c(Cl)cccc21 [Compound 151]  barnyardgrass       70
3  CCc1ncn(-c2ccc(C)c(C(=O)N3CC(C(F)(F)F)Oc4c(Cl)cccc43)c2)n1 (racemic) [Compound 290]  barnyardgrass       50
4  COc1cc(C(=O)N2C[C@H](C)Oc3c(Cl)cccc32)cc(-n2cnc(C3CC3)n2)c1 [Compound 216]  barnyardgrass       10
5  Cc1cccc2c1O[C@@H](C)CN2C(=O)c1cccc(-n2cnc(C#N)c2)c1 [Compound 233]  barnyardgrass       10
6  Cc1cc(-n2cnc(C(C)C)n2)cc(C(=O)N2C[C@H](C)Oc3c(Cl)cccc32)c1C [Compound 259]  barnyardgrass       20

* * *

Plant response rating, Blackgrass by entry:
- Tested on: blackgrass
- procedure details: Test C postemergence
- Assay type: in vivo, Alopecurus myosuroides
- test context: Postemergence, 1000 g ai/ha, 10 days, visual 0 to 100 scale (0 no effect, 100 complete control)
- Description: […]
measured property: Plant response rating, Blackgrass

>>> print(df.to_string())
                               input_smiles                  measured_property  reading
0  Cc1cccc2c1O[C@@H](C)CN2C(=O)c1cccc(-n2cncc2C#N)c1  Plant response rating, Blackgrass        0
1  C[C@H]1CN(C(=O)c2cccc(-c3cnnn3C)c2)c2cccc(Cl)c2O1  Plant response rating, Blackgrass       10
2  Cc1cnn(-c2cccc(C(=O)N3C[C@H](C)Oc4c(Cl)cccc43)c2)c1  Plant response rating, Blackgrass       10
3  Cc1ccn(-c2cccc(C(=O)N3C[C@H](C)Oc4c(Cl)cccc43)c2)n1  Plant response rating, Blackgrass        0
4  Cc1nsc(-c2cccc(C(=O)N3C[C@H](C)Oc4c(Cl)cccc43)c2)n1  Plant response rating, Blackgrass       50
5  Cc1cccc2c1O[C@@H](C)CN2C(=O)c1cccc(-n2cncc2Br)c1  Plant response rating, Blackgrass        0
6  Cc1cc(-c2cccc(C(=O)N3C[C@H](C)Oc4c(C)cccc43)c2)cs1  Plant response rating, Blackgrass        0
7  Cc1cccc2c1O[C@@H](C)CN2C(=O)c1cccc(-n2cnc(Cl)c2)c1  Plant response rating, Blackgrass       30

* * *

Barnyardgrass plant response rating by entry:
- Test system: barnyardgrass
- procedure details: Test C preemergence
- Type: in vivo, Echinochloa crusgalli
- test context: Test C, preemergence, 125 g ai/ha; 0 to 100 scale (0 no effect, 100 complete control)
measured property: Barnyardgrass plant response rating

>>> print(df.to_string())
                                   compound    measured_on                    measured_property  reading
0  CCn1cnc(-c2cccc(C(=O)N3C[C@H](C)Oc4c(Cl)cccc43)c2)n1 [Compound 173]  barnyardgrass  Barnyardgrass plant response rating        0
1  COC(=O)c1ncn(-c2ccc(C)c(C(=O)N3C[C@H](C)Oc4c(Cl)cccc43)c2)n1 [Compound 315]  barnyardgrass  Barnyardgrass plant response rating        0
2  COc1cc(C(=O)N2C[C@H](C)Oc3c(Cl)cccc32)cc(-n2cnc(C)n2)c1 [Compound 215]  barnyardgrass  Barnyardgrass plant response rating       80
3  Cc1cccc2c1O[C@@H](C)CN2C(=O)c1cc(-n2cnc(C(C)C)n2)cc2ccoc12 [Compound 227]  barnyardgrass  Barnyardgrass plant response rating       80
